Molecular target: IRAK-4 (Homo sapiens)
Sequence (Q9NWZ3 whole entry): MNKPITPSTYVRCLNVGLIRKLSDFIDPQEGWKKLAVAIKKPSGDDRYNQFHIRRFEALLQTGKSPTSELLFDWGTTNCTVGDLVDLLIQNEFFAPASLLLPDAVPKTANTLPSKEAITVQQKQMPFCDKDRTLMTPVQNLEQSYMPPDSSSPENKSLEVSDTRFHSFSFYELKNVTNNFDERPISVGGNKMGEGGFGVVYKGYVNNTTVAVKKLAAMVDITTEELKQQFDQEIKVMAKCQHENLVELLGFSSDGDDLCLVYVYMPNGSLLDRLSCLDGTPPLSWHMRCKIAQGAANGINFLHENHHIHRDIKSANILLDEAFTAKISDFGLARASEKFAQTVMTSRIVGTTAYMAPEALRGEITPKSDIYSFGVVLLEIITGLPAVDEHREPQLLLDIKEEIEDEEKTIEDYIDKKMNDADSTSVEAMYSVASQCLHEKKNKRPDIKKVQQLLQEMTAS
Experiment: IRAK-4 ELISA, PBMC degradation
Format: cell-based
Design: endogenous in cells; host or cells: PBMC
Conditions: treated overnight
VALUE_TYPE: DC50

Completed entries (count: 10):
{"COMPOUND": "CC(C)Oc1cc2nn(C3CCN(CC4(F)CN(c5cc6c(cn5)C(=O)N(C5CCC(=O)NC5=O)C6=O)C4)CC3)cc2cc1NC(=O)c1cnn2cccnc12 (stereo not shown)", "VALUE_OBSERVED": "1 to 5 nM"}
{"COMPOUND": "CC(C)Oc1cc2c(cc1NC(=O)c1cnn3cccnc13)CN(C1CCN(C3CN(c4ccc5c(c4)C(=O)N(C4CCC(=O)NC4=O)C5=O)C3)CC1)C2=O (stereo not shown)", "VALUE_OBSERVED": "1 to 5 nM"}
{"COMPOUND": "CC(C)Oc1cc2c(cc1NC(=O)c1cnn3cccnc13)CN(C1CCN(CCOc3ccc4c(c3)CN(C3CCC(=O)NC3=O)C4=O)CC1)C2=O (stereo not shown)", "VALUE_OBSERVED": "≥ 10 nM"}
{"COMPOUND": "CC(C)(C1CN(c2ccc3c(c2)C(=O)N(C2CCC(=O)NC2=O)C3=O)C1)N1CCC(n2cc3cc(NC(=O)c4cnn5cccnc45)c(OCC4CC4)cc3n2)CC1 (stereo not shown)", "VALUE_OBSERVED": "< 1 nM"}
{"COMPOUND": "O=C1CCC(N2Cc3cc(CCN4CCC(N5Cc6cc(NC(=O)c7cnn8cccnc78)c(N7CCOCC7)cc6C5=O)CC4)ccc3C2=O)C(=O)N1 (stereo not shown)", "VALUE_OBSERVED": "1 to 5 nM"}
{"COMPOUND": "O=C1CCC(N2C(=O)c3ccc(N4CC(CN5CCC(N6Cc7cc(NC(=O)c8cnn9cccnc89)c(OCC(F)F)cc7C6=O)CC5)C4)cc3C2=O)C(=O)N1 (stereo not shown)", "VALUE_OBSERVED": "< 1 nM"}
{"COMPOUND": "O=C1CCC(N2C(=O)c3ccc(N4CC(F)(CN5CCC(N6Cc7cc(NC(=O)c8cnn9cccnc89)c(C8CC8)cc7C6=O)CC5)C4)cc3C2=O)C(=O)N1 (stereo not shown)", "VALUE_OBSERVED": "1 to 5 nM"}
{"COMPOUND": "CC(C)Oc1cc2nn(C3CCN(CC(F)(F)C4CN(c5ccc6c(c5)C(=O)N(C5CCC(=O)NC5=O)C6=O)C4)CC3)cc2cc1NC(=O)c1cnn2cccnc12 (stereo not shown)", "VALUE_OBSERVED": "1 to 5 nM"}
{"COMPOUND": "O=C1CCC(N2C(=O)c3cc(F)c(N4CC(CN5CCC(n6cc7cc(NC(=O)c8cnn9cccnc89)c(OCC8CC8)cc7n6)CC5)C4)cc3C2=O)C(=O)N1 (stereo not shown)", "VALUE_OBSERVED": "1 to 5 nM"}
{"COMPOUND": "O=C1CCC(N2C(=O)c3ccc(N4CCC(CN5CCC(N6Cc7cc(NC(=O)c8cnn9cccnc89)c(OC8CC8)cc7C6=O)CC5)CC4)cc3C2=O)C(=O)N1 (stereo not shown)", "VALUE_OBSERVED": "< 1 nM"}

## Input Give DC50 for O=C1CCC(N2Cc3cc(OCCOCCN4CCC(n5cc6cc(NC(=O)c7cnn8cccnc78)c(OCC7CC7)cc6n5)CC4)ccc3C2=O)C(=O)N1 (stereo not shown)
## Output < 1 nM

## Input Give DC50 for O=C1CCC(N2Cc3cc(CCN4CCC(n5cc6cc(NC(=O)c7cnn8cccnc78)c(OCC7CC7)cc6n5)CC4)ccc3C2=O)C(=O)N1 (stereo not shown)
## Output 1 to 5 nM

## Input Give DC50 for CC(C)Oc1cc2c(cc1NC(=O)c1cnn3cccnc13)CN(C1CCN(CC3CCN(c4ccc5c(c4)C(=O)N(C4CCC(=O)NC4=O)C5=O)CC3)CC1)C2=O (stereo not shown)
## Output < 1 nM
